tested-on: human muscarinic receptor subtype M1 (Hm1) (Homo sapiens)
Sequence (P11229 whole entry): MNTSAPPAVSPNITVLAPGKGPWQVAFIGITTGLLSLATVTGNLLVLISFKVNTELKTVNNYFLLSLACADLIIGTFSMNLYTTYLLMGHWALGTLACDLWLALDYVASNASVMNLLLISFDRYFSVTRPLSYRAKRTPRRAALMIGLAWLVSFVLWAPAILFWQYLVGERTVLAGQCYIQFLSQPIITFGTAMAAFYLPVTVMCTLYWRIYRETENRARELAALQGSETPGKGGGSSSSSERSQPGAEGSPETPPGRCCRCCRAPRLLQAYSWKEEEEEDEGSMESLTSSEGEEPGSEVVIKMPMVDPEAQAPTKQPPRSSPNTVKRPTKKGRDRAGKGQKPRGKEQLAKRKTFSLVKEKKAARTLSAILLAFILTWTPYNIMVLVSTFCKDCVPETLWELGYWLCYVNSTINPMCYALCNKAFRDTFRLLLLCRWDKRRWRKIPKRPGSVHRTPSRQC
assay-info: [3H]-NMS receptor binding in CHO cell membranes, Hm1
condition-context: displacement of [3H]-NMS, membranes from transfected CHO cells; separate determinations in one cell
property-measured: IC50 (µM)
Your answer is read as µM, so omit the unit and give the number.

Task: Answer with the recorded IC50 of CCOC(=O)c1c(C)[nH]c2cc(Br)c3c(c12)CN1CCc2cc(OC)ccc2C1C3 (centres unmarked) only.
Result: 0.4

* * *

tested-on: human muscarinic receptor subtype M4 (Hm4) (Homo sapiens)
Sequence (P08173 whole entry): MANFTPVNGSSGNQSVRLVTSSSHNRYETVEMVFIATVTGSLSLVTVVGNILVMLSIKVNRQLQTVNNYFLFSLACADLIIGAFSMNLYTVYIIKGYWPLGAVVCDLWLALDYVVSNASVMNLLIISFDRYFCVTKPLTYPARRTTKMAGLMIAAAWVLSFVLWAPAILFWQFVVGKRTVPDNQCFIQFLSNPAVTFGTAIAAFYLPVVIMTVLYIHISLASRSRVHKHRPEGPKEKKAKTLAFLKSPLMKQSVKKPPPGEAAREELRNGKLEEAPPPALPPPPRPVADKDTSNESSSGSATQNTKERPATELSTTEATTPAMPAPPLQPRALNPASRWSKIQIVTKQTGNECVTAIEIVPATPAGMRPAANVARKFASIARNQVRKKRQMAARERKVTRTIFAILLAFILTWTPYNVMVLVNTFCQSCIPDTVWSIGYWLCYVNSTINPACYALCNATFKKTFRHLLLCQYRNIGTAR
assay-info: [3H]-NMS receptor binding in CHO cell membranes, Hm4
condition-context: displacement of [3H]-NMS, membranes from transfected CHO cells; separate determinations in one cell
Method: The compounds of Formula I have shown potent binding affinity for muscarinic receptors and are thus useful as muscarinicing antagonists. […] The compounds are evaluated in standard assays used to measure muscarinic receptor binding. Specifically, the compounds are evaluated for their binding affinity toward five human muscarinic receptor subtypes (M1-M5) by the method of Dorje et al., J. Pharm. Exp. Ther., 1991;256:727-733, incorporated herein by reference. […]
pIC50: −log10 of the molar value.
property-measured: pIC50

Task: Answer with the recorded pIC50 of CCCc1[nH]c2ccc3c(c2c1C(=O)OCC)CN1CCc2cc(OC)ccc2C1C3 (stereo not shown) only.
Result: < 5.00
